Test system: 922993-354-T-J3-PDC complex spheroid viability;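 also: spheroids exposed to the agents for one week; 100% = DMSO vehicle control wells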
assay_overview: Anticancer human tumor 922993-354-T-J3-PDC patient-derived endometrial carcinoma cell line growth inhibition [POLQ]
measurement_setup: second compound 0.316 µM; first compound 0.1 µM; active compounds read low
Please provide measured viability, T/C for the entries that follow.
Just the number please, in %, no unit attached.

Req: # query: viability, T/C | item Cn1ncnc1[C@H]1c2n[nH]c(=O)c3cc(F)cc(c23)N[C@@H]1c1ccc(F)cc1 + COC1C(OC(N)=O)C(O)C(Oc2ccc3c(O)c(NC(=O)c4ccc(O)c(CC=C(C)C)c4)c(=O)oc3c2C)OC1(C)C | system: 922993-354-T-J3-PDC complex spheroid viability;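 also: spheroids exposed to the agents for one week; 100% = DMSO vehicle control wells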
Resp: 86.1

Req: Notebook entry, 922993-354-T-J3-PDC complex spheroid viability assay: viability, T/C of CC1COCCN1c1cc(-c2ccnn2C)c2ccnc(-c3ccn[nH]3)c2n1 (stereo not given) + Cc1cccc(N(C)C(=O)C2C(O)CCN2c2nc(C)cc(C(F)(F)F)c2C#N)c1 = ?
Resp: 75.9

Req: Give the reported viability, T/C for CCc1c2c(nc3ccc(O)cc13)-c1cc3c(c(=O)n1C2)COC(=O)[C@]3(O)CC + COC1C(OC(N)=O)C(O)C(Oc2ccc3c(O)c(NC(=O)c4ccc(O)c(CC=C(C)C)c4)c(=O)oc3c2C)OC1(C)C (system: 922993-354-T-J3-PDC complex spheroid viability).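 Also: spheroids exposed to the agents for one week; 100% = DMSO vehicle control wells.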
Resp: 11.8

Req: Lab note: need viability, T/C for COc1cc2cc(C(=O)CCC(=O)O)sc2cc1OC + Cc1cccc(N(C)C(=O)C2C(O)CCN2c2nc(C)cc(C(F)(F)F)c2C#N)c1 on 922993-354-T-J3-PDC complex spheroid viability, anyone have it?
Resp: 105

Req: What is its viability, T/C for 922993-354-T-J3-PDC complex spheroid viability? Entry: Cn1ncnc1[C@H]1c2n[nH]c(=O)c3cc(F)cc(c23)N[C@@H]1c1ccc(F)cc1 + Cc1cccc(N(C)C(=O)C2C(O)CCN2c2nc(C)cc(C(F)(F)F)c2C#N)c1
Resp: 67.2
